Please provide measured protein stability index for the entries that follow.
# METHOD DESCRIPTION: protein stability index of a GFP-peptide fusion (yeast GPS) (PSI 1-4); higher = more stable; sorted into four equal gates, so the index is relative within each strain
# ASSAY CONTEXT: pdr5∆

[in] Please look up its protein stability index: VMFATNRPNTLDPALLR [RPT1]
[out] 3.05

[in] # protein stability index lookup, item KMSDGFNGADIRNCATE [RPT4]
[out] 3.47

[in] Returns the measured protein stability index for the input sequence. Input: TQDESEIKDAETSCDNY [SMC4]
[out] 2.62

[in] Quick one: protein stability index for YGKVYKAKRQINSGTNS [SSN3] ?
[out] 2.04

[in] Given YASKAVPHYNRLDSYKV [RPL25] , state its recorded protein stability index.
[out] 2.7

[in] Field request: protein stability index | item: DYRPAEETEAQAEPVEA [RPS3]
[out] 3.26

[in] Could you share which protein stability index value was measured for KYNVNISALTQTEIKDI [PRP8] ?
[out] 2.57

[in] // protein stability index lookup, key: IEDRDFLVRYACEPTAE [SIR3]
[out] 2.83

[in] Name the reported protein stability index value associated with the sequence TILSSKLSNIWMQRQLI [SRB2]
[out] 1.96

[in] Which protein stability index is reported for this sequence? KNPKFSNAFYSVLRDTL [SMC4]
[out] 2.34

[in] Param item = LLGIDATVPSGRPETYI [RPO31] ; retrieve measured protein stability index.
[out] 2.32

[in] Which protein stability index reading was recorded for the sequence YGYPSYSTIRQLVYKRG [RPL7A] ?
[out] 1.52

[in] Field request: protein stability index | item: HLGLDDPQDVFNYNIFM [SIR2]
[out] 3.2

[in] Need protein stability index of LNISPFTFGLTVVQVYD [RPP0] , thanks.
[out] 1.61

[in] // query protein stability index value for entry SMTATADVLAMAKVEVN [RIP1]
[out] 2.4
